- method-summary: Cytotoxicity against human A549 cells assessed as reduction in cell viability at 10 uM incubated for 24 hrs by Cell-Titer Glo luminescence assay
- Assay type: toxicity, cell-based
- cond: read-out: INH
Each entry below carries its recorded cytotoxicity at 24 h, 10 µM.
# number only, unit % dropped from output

Consider the worked cases shown below.
COc1cc(/C=N/Nc2ncnc3c(Nc4ccc(F)c(Cl)c4)ncnc23)cc(OC)c1OC :: 14
COc1ccc(Nc2ncnc3c(NN)ncnc23)cc1 :: -14

*Q* Look at this molecule and give its reported cytotoxicity at 24 h, 10 µM. COc1cc(/C=N/Nc2ncnc3c(Nc4ccc(Cl)c(C(F)(F)F)c4)ncnc23)cc(OC)c1O
*A* -2

---

Each entry below carries its recorded CC50 at 72 h.
- method-summary: Cytotoxicity against human THP-1 cells assessed as reduction in cell viability incubated for 72 hrs by MTT assay
- Format: toxicity, cell-based

Consider the worked cases shown below.
COc1cc(/C=N/Nc2ncnc3c(Nc4ccc(OC(F)(F)F)cc4)ncnc23)ccc1O :: > 10 µM
COc1cc(/C=N/Nc2ncnc3c(Nc4ccc(F)c(Cl)c4)ncnc23)ccc1O :: > 50 µM
COc1cc(/C=N/Nc2ncnc3c(Nc4ccc(F)c(Cl)c4)ncnc23)cc(OC)c1O :: > 100 µM
Oc1ccc(/C=N/Nc2ncnc3c(Nc4ccc(F)c(Cl)c4)ncnc23)cc1O :: > 50 µM
COc1cccc(Nc2ncnc3c(N/N=C/c4ccc(OC)c(OC)c4)ncnc23)c1 :: > 50 µM
N=C(N)c1ccc(OCCCCCOc2ccc(C(=N)N)cc2)cc1 [PENTAMIDINE] :: < 10 µM
COc1cccc(Nc2ncnc3c(N/N=C/c4ccc(O)c(O)c4)ncnc23)c1 :: > 50 µM
COc1ccc(Nc2ncnc3c(N/N=C/c4ccc(O)c(O)c4)ncnc23)cc1 :: > 100 µM
Oc1cc(/C=N/Nc2ncnc3c(Nc4ccc(F)c(Cl)c4)ncnc23)cc(O)c1O :: > 10 µM

Now take the following compound into account.
*Q* Look at this compound and give its reported CC50 at 72 h. COc1cc(/C=N/Nc2ncnc3c(Nc4ccc(Cl)c(C(F)(F)F)c4)ncnc23)cc(OC)c1O
*A* > 10 µM

---

- Test system: Leishmania infantum
- method-summary: Anti-leishmanial activity against luciferase expressing intracellular amastigote stage of Leishmania infantum MHOM/MA/67/ITMAP-263 infected in human THP-1 cells assessed as inhibition of parasite growth at 10 uM incubated for 72 hrs by Steady-Glo luciferase assay
- Type: functional
- cond: MHOM/MA/67/ITMAP-263, THP-1
value-kind: inhibition at 10 µM (%)
# number only, unit % dropped from output

COc1ccc(Nc2ncnc3c(N/N=C/c4ccc(O)c(O)c4)ncnc23)cc1 :: 87
COc1ccc(Nc2ncnc3c(N/N=C/c4ccc(OC)c(OC)c4)ncnc23)cc1 :: 85
COc1cccc(Nc2ncnc3c(N/N=C/c4cc(O)c(O)c(O)c4)ncnc23)c1 :: 4

*Q* Look at this compound and give its reported inhibition at 10 µM. COc1cccc(Nc2ncnc3c(N/N=C/c4ccc(O)c(O)c4)ncnc23)c1
*A* 62

Data provenance: ChEMBL document CHEMBL5614450
